FYI, the data here is from PubChem BioAssay AID588342.

# experimental-target: Luciferin 4-monooxygenase (Photinus pyralis) (UniProt P08659)
# Sequence (P08659 whole entry, looked up): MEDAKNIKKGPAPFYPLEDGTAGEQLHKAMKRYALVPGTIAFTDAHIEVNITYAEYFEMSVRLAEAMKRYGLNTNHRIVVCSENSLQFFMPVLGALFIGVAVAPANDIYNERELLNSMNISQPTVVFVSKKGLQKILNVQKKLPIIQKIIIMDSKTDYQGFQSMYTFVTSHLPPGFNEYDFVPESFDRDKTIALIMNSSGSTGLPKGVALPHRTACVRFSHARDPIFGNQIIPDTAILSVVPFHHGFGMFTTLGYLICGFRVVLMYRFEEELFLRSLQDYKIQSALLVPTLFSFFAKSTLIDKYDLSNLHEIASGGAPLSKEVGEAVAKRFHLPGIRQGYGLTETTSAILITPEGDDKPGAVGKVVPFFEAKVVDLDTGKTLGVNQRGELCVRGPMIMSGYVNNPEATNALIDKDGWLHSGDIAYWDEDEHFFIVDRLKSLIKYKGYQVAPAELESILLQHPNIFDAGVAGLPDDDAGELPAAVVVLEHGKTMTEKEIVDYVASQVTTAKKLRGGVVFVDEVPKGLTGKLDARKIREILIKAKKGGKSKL
# experimental-details: qHTS profiling assay for firefly luciferase inhibitor/activator using purifed enzyme and Km concentrations of substrates (counterscreen for miR-21 project); further: nearly all actives have a fitted effect of over 55% in size
# test-context: purified FLuc, luminescence inhibition; series mostly up to 57.5 µM
About 25,000 (6.9%) of roughly 360,000 compounds were called active. Inconclusive results (about 9%) are left out. The call rests on the fitted dose curve; in most records, active means well fitted inhibition curve with a large enough effect; inconclusive means small, poorly fitted or top-dose-only effect; inactive means flat fitted curve, though single readings scatter. The sample holds actives, similar compounds and a random draw of the others, so the mix is not that of the screen.
Select the matching outcome among active, inactive

Cc1c(C=O)c2ccccc2n1CC(=O)O :: inactive
CC(=O)n1c(C=Nc2ccccc2)c(O)c2ccccc21 :: active
CCCn1nnnc1NC(=O)COc1ccc(Cl)cc1C :: inactive
COc1ccc(-c2nnc3n2CCCCC3)cc1 :: inactive
COc1ccc(C(=O)Nc2ccccc2C(=O)N/N=C/c2ccc(O)c(OC)c2)cc1 :: active
N/C(=N\OC(=O)c1ccc([N+](=O)[O-])cc1)c1ccccn1 :: active
COc1ccccc1-c1cnn2c(N3CCOCC3)cc(C)nc12 :: active
O=C(OCc1ccc([N+](=O)[O-])cc1)c1ccccn1 :: inactive
O=C(CSc1cn(CC(=O)N2CCOCC2)c2ccccc12)Nc1ccccc1 :: inactive
O=C(Nc1ccccc1)Nc1nnc(COc2ccccc2F)s1 :: inactive

Problem: Would you mind telling me which call this test gave Cc1cc(Nc2ccccc2)n(CCC#N)n1 ?
Solution: inactive

###

# experimental-target: Luciferin 4-monooxygenase (Photinus pyralis) (UniProt P08659)
# experimental-details: qHTS profiling assay for firefly luciferase inhibitor/activator using purifed enzyme and Km concentrations of substrates (counterscreen for miR-21 project); further: nearly all actives have a fitted effect of over 55% in size
# test-context: purified FLuc, luminescence inhibition; series mostly up to 57.5 µM
Out of some 360,000 compounds screened, about 25,000 (6.9%) were called active. Not shown: some 9% with an inconclusive outcome. Calls come from the whole dose curve; as a rule, active = well fitted inhibition curve with a large enough effect; inconclusive = small, poorly fitted or top-dose-only effect; inactive = flat fitted curve, though single readings scatter. For the sample, actives were picked, then their nearest neighbours and some compounds at random.
Field 'call' accepts active, inactive

Cc1ccccc1-c1nc2cc(NC(=O)c3cccc(OCCC(C)C)c3)ccc2o1 :: inactive
COc1cc(Cl)c(C)cc1NC(=O)COC(=O)c1cc(SC)ccc1Cl :: inactive
O=C1/C(=C/c2ccc(F)cc2)SC(=S)N1CCCC(=O)N1CCCCC1CCO (stereo unspecified) :: inactive

Now take the following compound into account.
Problem: Any idea what this test logged for Cc1cc(C)cc(NC(c2nnc(-c3cccc(F)c3)o2)c2ccc(F)cc2Cl)c1 (stereo unspecified) ?
Solution: inactive

###

# experimental-target: Luciferin 4-monooxygenase (Photinus pyralis) (UniProt P08659)
# experimental-details: qHTS profiling assay for firefly luciferase inhibitor/activator using purifed enzyme and Km concentrations of substrates (counterscreen for miR-21 project); further: nearly all actives have a fitted effect of over 55% in size
# test-context: purified FLuc, luminescence inhibition; series mostly up to 57.5 µM
Out of some 360,000 compounds screened, about 25,000 (6.9%) were called active. Not shown: some 9% with an inconclusive outcome. Shown is part of a subset that was picked to be rich in actives.
quantity-kind: outcome

Cc1nc(-c2ccc(F)cc2)c(CC(=O)N(C)CC(=O)Nc2c(C)cccc2C)s1 :: inactive
CCNCCC(=O)N1c2ccccc2Sc2ccc(NC(=O)OCC)cc21 :: inactive
CC(=O)NC12CC3CC(C1)CC(C(=O)N1CCN(C(=O)c4ccco4)CC1)(C3)C2 :: inactive

###

# experimental-target: Luciferin 4-monooxygenase (Photinus pyralis)
# experimental-details: qHTS profiling assay for firefly luciferase inhibitor/activator using purifed enzyme and Km concentrations of substrates (counterscreen for miR-21 project); further: nearly all actives have a fitted effect of over 55% in size
# test-context: purified FLuc, luminescence inhibition; series mostly up to 57.5 µM
In all, about 360,000 compounds went through this assay and about 25,000 (6.9%) were called active. Not shown: some 9% with an inconclusive outcome. The call rests on the fitted dose curve; in most records, active means well fitted inhibition curve with a large enough effect; inconclusive means small, poorly fitted or top-dose-only effect; inactive means flat fitted curve, though single readings scatter. This excerpt belongs to a sample that is enriched for actives.
Reply using exactly one outcome from active, inactive

Known results for molecules:
O=C(Nc1nc2cc3c(cc2s1)OCCO3)c1cccc(S(=O)(=O)N2CCOCC2)c1 :: active
CN(Cc1cnccn1)C(=O)c1cc(COc2cccc(C(F)(F)F)c2)on1 :: inactive

Problem: Short answer needed: outcome of this test for Cc1ccc2oc(=O)c3cnn(CC(=O)NCc4ccccc4Cl)c3c2c1 ?
Solution: inactive

Problem: Please indicate how the test categorized CCN(CC)c1ccc(C(=O)c2cnc(/N=C/N(C)C)s2)cc1 .
Solution: active

Problem: Identify the outcome logged in this assay for the molecule shown: COc1ccc(/C=C/C(=O)Nc2ccc3c(c2)OCCO3)cc1OC
Solution: active

Problem: Entry COc1ccc(CCNc2nc(-c3ccc(Cl)cc3)cc(C(F)(F)F)n2)cc1OC : call = ?
Solution: inactive

Problem: Recorded test call requested for Cc1cc(CN(C)C(=O)c2cc(COc3ccc(C)c(C)c3)on2)n[nH]1
Solution: active

Problem: What call does the record list for Cc1ccnc(-n2sc3ccccc3c2=O)n1 ?
Solution: active

Problem: Fill in: this test's call for COc1cccc(NC(=O)CSc2nccn(-c3ccc4c(c3)OCCO4)c2=O)c1 is ___
Solution: inactive

Problem: Returns: the outcome recorded for CCc1ccccc1NS(=O)(=O)c1ccc2nc(-c3ccccc3)[nH]c2c1 in this assay.
Solution: inactive

###

# experimental-target: Luciferin 4-monooxygenase (Photinus pyralis)
# experimental-details: qHTS profiling assay for firefly luciferase inhibitor/activator using purifed enzyme and Km concentrations of substrates (counterscreen for miR-21 project); further: nearly all actives have a fitted effect of over 55% in size
# test-context: purified FLuc, luminescence inhibition; series mostly up to 57.5 µM
The campaign covered roughly 360,000 compounds. About 25,000 (6.9%) were called active. About 9% were inconclusive and are not listed. Calls follow the shape of the dose curve; as a rule, active = well fitted inhibition curve with a large enough effect; inconclusive = small, poorly fitted or top-dose-only effect; inactive = flat fitted curve, though single readings scatter. This excerpt belongs to a sample that is enriched for actives.
Parameter call: string, one of YES (active), NO (inactive)

Cc1nn(-c2ccccc2)c(Cl)c1/C=N/NC(=O)c1nn(C)cc1[N+](=O)[O-] :: YES
Cc1cc(NC(=O)COn2nnc3ccccc32)no1 :: NO
CCOC(=O)c1c(SCC(=O)Nc2cccc(C)c2C)nc(=O)[nH]c1C :: NO
Cc1cc(NC(=O)c2ccccc2C)no1 :: YES
CNS(=O)(=O)c1ccc(NC(=O)Nc2ccc3c(c2)OCO3)cc1 :: YES
O=C(/C=C\c1ccc2c(c1)OCO2)NC1(C(=O)Nc2ccc3c(c2)OCCO3)CCCCC1 :: NO

Problem: Call for entry CC(C)CNS(=O)(=O)c1ccc(C(=O)Nc2ccc3c(c2)OCO3)cc1 :
Solution: NO

Problem: Field: outcome | Entry: Cc1cc(NC(=O)COc2ccc([N+](=O)[O-])cc2)no1
Solution: NO

###

# experimental-target: Luciferin 4-monooxygenase (Photinus pyralis)
# experimental-details: qHTS profiling assay for firefly luciferase inhibitor/activator using purifed enzyme and Km concentrations of substrates (counterscreen for miR-21 project); further: nearly all actives have a fitted effect of over 55% in size
# test-context: purified FLuc, luminescence inhibition; series mostly up to 57.5 µM
The campaign covered roughly 360,000 compounds. About 25,000 (6.9%) were called active. About 9% were inconclusive and are not listed. The call rests on the fitted dose curve; in most records, active means well fitted inhibition curve with a large enough effect; inconclusive means small, poorly fitted or top-dose-only effect; inactive means flat fitted curve, though single readings scatter. Only a selection was taken, and actives are over-represented in it overall.
Please state which outcome applies, choosing from Y = active, N = inactive

Worked cases, answers included:
CC1CCN(C2=NC(=O)/C(=C/c3ccc(O)cc3)S2)CC1 :: Y
Cc1nc(C(=O)Nc2ccc(Cl)cc2)sc1C1(C)CC(c2ccccc2)=NO1 (configuration not stated) :: N
CC(=O)N1c2ccccc2CC1C(=O)N1CCN(c2ccc(F)cc2)CC1 (configuration not stated) :: N
O=C(CC1Oc2ccc(Cl)cc2NC1=O)NCc1ccccc1 (configuration not stated) :: N
O=C(Cn1cc(C(=O)c2cccs2)c2ccccc21)NCc1cccs1 :: Y

Problem: Identify the outcome logged in this assay for the molecule shown: COc1ccc2cc(CNc3ccc(OC)c(OC)c3)c(=O)n(CC(=O)Nc3ccccc3F)c2c1
Solution: N

Problem: Would you mind telling me which call this test gave COc1ccc(NC(=O)CSc2nc(N)c(-c3ccccc3)c(=O)[nH]2)cc1 ?
Solution: N

Problem: # fetch the recorded call for Cc1cc(C)c(OCC(=O)N/N=C/c2ccco2)c(C)c1 here
Solution: N

Problem: # outcome recorded in this test, key = CCn1cc(C(=O)N(C)Cc2ccccc2)c(=O)c2cc(S(=O)(=O)N3CCCCCC3)ccc21
Solution: N

Problem: I would be grateful if you could indicate the recorded call for COc1ccc(/C=N/OCc2ccccc2C#N)c(OC)c1 .
Solution: Y

Problem: What is the recorded call for this molecule in the test? COC(=O)COc1ccc2c(c1C)O/C(=C\c1ccco1)C2=O
Solution: Y

###

# experimental-target: Luciferin 4-monooxygenase (Photinus pyralis)
# experimental-details: qHTS profiling assay for firefly luciferase inhibitor/activator using purifed enzyme and Km concentrations of substrates (counterscreen for miR-21 project); further: nearly all actives have a fitted effect of over 55% in size; further: potency means the concentration at half of the fitted maximal effect
# test-context: purified FLuc, luminescence inhibition; series mostly up to 57.5 µM
Out of some 360,000 compounds screened, about 25,000 (6.9%) were called active. Another 9% or so got no clear call; they are omitted. The entries come from a sample that favours actives as a whole.
quantity-kind: Potency

O=C(CSc1nnc(-c2ccncc2)o1)NCc1ccc(Cl)cc1 :: inactive
Cc1ccc2nc(Nc3ccccc3)cc(C)c2c1 :: 23.9 µM (active)
COc1cc(OC)cc(C(=O)Nc2ccc3nc(Nc4cccc(C(F)(F)F)c4)cc(C)c3c2)c1 :: inactive
Clc1ccc(-c2nnc(SCc3nc4ccccc4s3)o2)cc1 :: 19 µM (active)
COc1ccc(OC)c(CN2CCN(C(=O)CNC(=O)c3cc(C)cc(C)c3)CC2)c1 :: inactive

Value of measured Potency for the entry CC(Sc1nncn1C)C(=O)Nc1ccccc1-c1ccccc1 (configuration not stated) : inactive

The value of Potency measured for the compound CN1CCN(S(=O)(=O)c2ccc(NC(=O)C3CCCO3)cc2)CC1 (configuration not stated) turned out to be inactive

Please fill in: Potency reported for O=C1c2ccccc2C(=O)N1CCOc1ccc(F)cc1 = 13.5 µM (active)

Record summary for Cc1cccc2c1N(CCOc1ccccc1)C(=O)C2=O : reported Potency = inactive

Entry under test: CCCC(NS(=O)(=O)c1ccc(OC)cc1)C(=O)O (configuration not stated) . Its Potency was inactive

For COc1ccccc1C(CNC(=O)c1cccc(S(=O)(=O)Nc2ccc(F)cc2)c1)N(C)C (configuration not stated) the compound record lists Potency as inactive

Reported Potency for CC1CC(C)CN(C/C=C/c2ccccc2[N+](=O)[O-])C1 (configuration not stated) was inactive

Noted for Cc1ccc(S(=O)(=O)N(CC(=O)Nc2ccc(Cl)cc2Cl)c2ccccc2C)cc1 : its Potency reads inactive

For record CCC1(CC)NC(=O)N(CC(=O)OCC(=O)c2cc(C)c(C)cc2C)C1=O the listed Potency is inactive

Reported Potency ( COc1ccc(C2=NN(C(=O)CSc3nnnn3C)C(c3ccco3)C2)cc1 (configuration not stated) ) = inactive

Potency for Cc1ccc2nc(Nc3ccccc3O)nc(-c3ccccc3)c2c1 is inactive

The compound O=C(O)c1ccc2c(=O)n3c(nc2c1)/C(=C/c1ccc(Cl)c([N+](=O)[O-])c1)CC3 showed Potency equal to inactive
